target: BACE2 (Homo sapiens, UniProt Q9Y5Z0); construct: recombinant BACE2 protein in a final concentration of 0.4 μg/ml; test: BACE2 biochemical FRET based assay; conditions: recombinant BACE2 0.4 μg/ml, 10 μM substrate, 450 min, pH 5.0; read-out: BIOCHEMICAL FRET BASED ASSAY pIC50 (converted)
Provide the reported IC50 of each item.
Give bare numbers, in nM.

// known answers, use as guide
molecule="COc1ncc(C#N)c2c1CC1(c3ccc(F)cc3F)N=C(N)SCC1C2 (racemic)" system="BACE2 (Homo sapiens, UniProt Q9Y5Z0)" recorded_measurement=155
molecule="COc1nccc2c1CC1(c3cc(-c4cncc(C#N)c4)ccc3F)N=C(N)SCC1C2 (racemic)" system="BACE2 (Homo sapiens, UniProt Q9Y5Z0)" recorded_measurement=251
molecule=COc1nccc2c1C[C@]1(c3cc(OCC4CC4)ccc3F)N=C(N)SC[C@@H]1C2 system="BACE2 (Homo sapiens, UniProt Q9Y5Z0)" recorded_measurement=14.8
molecule=COc1cc(C)c(-c2cnc(OC)c3c2C[C@H]2CSC(N)=N[C@@]2(c2ccc(F)cc2F)C3)cn1 system="BACE2 (Homo sapiens, UniProt Q9Y5Z0)" recorded_measurement=195
molecule="Cn1ccc2c(c1=O)C[C@]1(c3ccccc3F)N=C(N)SC[C@@H]1C2 (racemic)" system="BACE2 (Homo sapiens, UniProt Q9Y5Z0)" recorded_measurement=6030

Could you report IC50 for every entry in the following list?
1. COc1ncc(-c2cnccc2C)c2c1CC1(c3ccc(Cl)cc3F)N=C(N)SCC1C2 (single isomer, unassigned) [Compound 200]
2. COc1nccc2c1CC1(c3cc(-c4cncnc4)c(F)cc3F)N=C(N)SCC1C2 (racemic)
3. COc1nccc2c1CC1(c3cc([N+](=O)[O-])c(F)cc3F)N=C(N)SCC1C2 (racemic)

[437, 219, 537]

----------
molecular target: BACE1 (Homo sapiens); construct: recombinant BACE1 protein in a final concentration of 0.04 μg/ml; assay: BACE1 biochemical FRET based assay; conditions: recombinant BACE1 0.04 μg/ml, 20 μM substrate, 450 min, pH 5.0; read-out: BIOCHEMICAL FRET BASED ASSAY pIC50 (converted)
readout-kind: IC50

Recorded IC50, per entry:
compound="COCC(=O)Nc1cc(C23Cc4c(ccnc4OC)CC2CSC(N)=N3)c(F)cc1F (single isomer, unassigned) [Compound 198]" system="BACE1 (Homo sapiens)" recorded_measurement="1070 nM"
compound=COC/C=C/c1cnc(OC)c2c1C[C@H]1CSC(N)=N[C@@]1(c1ccc(F)cc1F)C2 system="BACE1 (Homo sapiens)" recorded_measurement="10.2 nM"
compound="CCOc1nccc2c1CC1(c3ccc(F)cc3F)N=C(N)SCC1C2 (single isomer, unassigned) [Compound 194]" system="BACE1 (Homo sapiens)" recorded_measurement="> 10000 nM"

Now consider a different compound.
Requested read-out: IC50. Entry: COc1nccc2c1C[C@@]1(c3cc(OCC4CC4)ccc3F)N=C(N)SC[C@H]1C2 > 10000 nM

----------
molecular target: BACE2 (Homo sapiens, UniProt Q9Y5Z0); construct: recombinant BACE2 protein in a final concentration of 0.4 μg/ml; experiment: BACE2 biochemical FRET based assay; settings: recombinant BACE2 0.4 μg/ml, 10 μM substrate, 450 min, pH 5.0; read-out: BIOCHEMICAL FRET BASED ASSAY pIC50 (converted)
The label True is reserved for IC50 strictly under 300 nM; False covers values equal to or above it.

Some entries whose results are on file:
compound="COc1nccc2c1CC1(c3cc(O)ccc3F)N=C(N)SCC1C2 (racemic)" assigned_label=True
compound="COc1ncc(-c2cnccc2C)c2c1CC1(c3ccc(Cl)cc3F)N=C(N)SCC1C2 (single isomer, unassigned) [Compound 201]" assigned_label=False
compound="CCOc1nccc2c1CC1(c3ccc(F)cc3F)N=C(N)SCC1C2 (racemic) [Compound 4]" assigned_label=False
compound=COc1nccc2c1C[C@]1(c3cc(O)ccc3F)N=C(N)SC[C@@H]1C2 assigned_label=True
compound="COc1ncc(-c2cnccc2C)c2c1C[C@]1(c3cc(-c4cncnc4)ccc3F)N=C(N)SC[C@@H]1C2 (racemic)" assigned_label=False

Say whether its IC50 is strictly beneath 300 nM. Entry: COc1nccc2c1C[C@]1(c3ccc(F)cc3F)N=C(N)OC[C@@H]1C2 (racemic) False

What do you get for CCOC(=O)c1cnc(OC)c2c1C[C@H]1CSC(N)=N[C@@]1(c1ccc(F)cc1F)C2 (racemic) ? True

Another compound: COc1nccc2c1C[C@]1(c3ccccc3F)N=C(N)SC[C@@H]1C2 (racemic) True

----------
target: BACE1 (Homo sapiens, UniProt P56817); construct: recombinant BACE1 protein in a final concentration of 0.04 μg/ml; experiment: BACE1 biochemical FRET based assay; conditions: recombinant BACE1 0.04 μg/ml, 20 μM substrate, 450 min, pH 5.0; read-out: BIOCHEMICAL FRET BASED ASSAY pIC50 (converted)
Sequence (P56817 46-501): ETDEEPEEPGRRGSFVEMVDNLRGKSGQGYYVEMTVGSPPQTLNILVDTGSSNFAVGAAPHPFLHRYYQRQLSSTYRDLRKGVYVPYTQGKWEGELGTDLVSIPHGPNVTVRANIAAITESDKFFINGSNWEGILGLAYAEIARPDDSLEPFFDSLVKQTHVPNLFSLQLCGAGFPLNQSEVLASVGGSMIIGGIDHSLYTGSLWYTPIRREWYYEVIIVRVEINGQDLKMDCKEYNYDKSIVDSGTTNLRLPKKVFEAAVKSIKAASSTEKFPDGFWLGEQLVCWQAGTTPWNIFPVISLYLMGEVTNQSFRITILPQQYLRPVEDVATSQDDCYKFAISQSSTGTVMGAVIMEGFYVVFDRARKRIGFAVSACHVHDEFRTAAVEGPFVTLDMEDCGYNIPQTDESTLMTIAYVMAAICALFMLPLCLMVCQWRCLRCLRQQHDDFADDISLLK
Hi there, I'd appreciate the recorded IC50 for every entry that follows.
Give bare numbers, in nM.

Use these answered entries as a reference point.
compound="COCC(C)NCc1ccc(F)c(C23Cc4c(ccnc4OC)CC2CSC(N)=N3)c1 (racemic)" units_label=nM recorded_measurement=70.8
compound=COc1nccc2c1C[C@]1(c3cc(O)ccc3F)N=C(N)SC[C@@H]1C2 units_label=nM recorded_measurement=138
compound="CCOC(=O)c1cnc(OC)c2c1C[C@H]1CSC(N)=N[C@@]1(c1ccc(F)cc1F)C2 (racemic)" units_label=nM recorded_measurement=13.8

The record that follows has no IC50 shown yet.
Look up IC50 for this compound: COc1ncc(C2CC2)c2c1C[C@]1(c3ccccc3F)N=C(N)SC[C@@H]1C2 (racemic) 24.5

----------
Would you kindly list BIOCHEMICAL FRET BASED ASSAY pIC50 for each of these molecules?
Target: BACE2 (Homo sapiens)
Construct: recombinant BACE2 protein in a final concentration of 0.4 μg/ml
Sequence (Q9Y5Z0 63-518): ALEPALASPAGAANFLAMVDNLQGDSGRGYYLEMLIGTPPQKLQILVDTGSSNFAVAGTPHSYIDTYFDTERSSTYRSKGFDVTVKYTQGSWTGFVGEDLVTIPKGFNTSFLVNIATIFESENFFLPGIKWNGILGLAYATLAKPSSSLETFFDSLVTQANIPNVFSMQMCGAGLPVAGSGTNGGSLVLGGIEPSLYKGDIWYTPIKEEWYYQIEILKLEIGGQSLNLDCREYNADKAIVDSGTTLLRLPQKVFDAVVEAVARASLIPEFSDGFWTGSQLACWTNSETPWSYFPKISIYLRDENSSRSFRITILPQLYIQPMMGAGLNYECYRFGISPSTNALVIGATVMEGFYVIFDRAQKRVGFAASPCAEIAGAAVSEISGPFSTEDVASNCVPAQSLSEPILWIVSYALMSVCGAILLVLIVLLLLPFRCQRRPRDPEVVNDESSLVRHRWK
Assay: BACE2 biochemical FRET based assay
Settings: recombinant BACE2 0.4 μg/ml, 10 μM substrate, 450 min, pH 5.0
Give bare numbers.

Example cases with answers are listed next.
molecule=COc1ncc(C2=CCOCC2)c2c1C[C@]1(c3ccc(F)cc3F)N=C(N)SC[C@@H]1C2 system="BACE2 (Homo sapiens)" recorded_measurement=8.44
molecule="CCOc1nccc2c1CC1(c3ccc(F)cc3F)N=C(N)SCC1C2 (single isomer, unassigned)" system="BACE2 (Homo sapiens)" recorded_measurement=6.85
molecule=COc1ncc(Br)c2c1C[C@]1(c3cc(Oc4ccccn4)ccc3F)N=C(N)SC[C@@H]1C2 system="BACE2 (Homo sapiens)" recorded_measurement=7.72

Attention now shifts to the item below.
Request: BIOCHEMICAL FRET BASED ASSAY pIC50, test system BACE2 (Homo sapiens), entry COc1ncc(-c2ccccc2C)c2c1C[C@]1(c3ccc(F)cc3F)N=C(N)SC[C@@H]1C2 7.4

----------
target: BACE1 (Homo sapiens, UniProt P56817); construct: recombinant BACE1 protein in a final concentration of 0.04 μg/ml; assay: BACE1 biochemical FRET based assay; conditions: recombinant BACE1 0.04 μg/ml, 20 μM substrate, 450 min, pH 5.0; read-out: BIOCHEMICAL FRET BASED ASSAY pIC50 (converted)
readout-kind: IC50 (nM)
Answers are plain numbers, in nM.

Below, 5 compounds whose answers are already recorded.
compound="COc1ncc(C#N)c2c1C[C@]1(c3ccccc3F)N=C(N)SC[C@@H]1C2 (racemic) [Compound 22]" readout_kind=IC50 recorded_measurement=178
compound="COc1nccc2c1CC1(c3cc(C#N)ccc3F)N=C(N)SCC1C2 (racemic) [Compound 9]" readout_kind=IC50 recorded_measurement=132
compound="COc1nccc2c1CC1(c3cc(-c4cncnc4)c(F)cc3F)N=C(N)SCC1C2 (racemic) [Compound 11]" readout_kind=IC50 recorded_measurement=21.9
compound="COc1ccncc1-c1cnc(OC)c2c1C[C@H]1CSC(N)=N[C@@]1(c1ccc(F)cc1F)C2 [Compound 103]" readout_kind=IC50 recorded_measurement=209
compound="COc1ncc(-c2cccnc2)c2c1C[C@]1(c3ccc(F)cc3F)N=C(N)SC[C@@H]1C2 [Compound 87]" readout_kind=IC50 recorded_measurement=3.8

Shifting focus to the compound that follows.
Consider the compound COc1ncc(-c2cncc(C)c2)c2c1C[C@]1(c3ccc(F)cc3F)N=C(N)SC[C@@H]1C2 [Compound 108] and give its measured IC50. 7.76

Data origin: patent US20200010482A1
